system: 3T3-L1; experiment: Inhibition of chronic insulin-stimulated insulin resistance in differentiated mouse 3T3L1 cells assessed as 2-deoxy-D-[3H]-glucose uptake after 24 hrs by scintillation counting analysis; type: functional, cell-based
Activity calls are given as the source filed them. The calls are words filed in the database; no cut-off is given here.
Tick one outcome: active, inactive

Below, 3 compounds whose answers are already recorded.
compound: CN(CCBr)c1cc(-c2ccc(Cl)cc2)oc(=O)c1C#N
group: active
//
compound: COc1ccc(-c2cc(N(C)CCOC(=O)Cc3ccc(O)cc3)c(C#N)c(=O)o2)cc1
group: inactive
//
compound: COc1ccc(-c2cc(N(C)CCN3C(=O)SC(Cc4cccc(O)c4)C3=O)c(C#N)c(=O)o2)cc1 (centres undefined)
group: inactive

Here's the next entry for you.
Kindly provide the recorded test outcome for the following compound: CN(CCOc1ccc(CC2SC(=O)NC2=O)cc1)c1ccccn1 (centres undefined)
active
